- Tested target: T1, 可溶型GPC3コアタンパク質 (human, UniProt P51654 25-563)
- T1 construct: also called 可溶型GPC3コア蛋白質; soluble GPC3 core protein; not shown: C-terminal His tag
- T1 sequence (P51654 25-563 S495A/S509A): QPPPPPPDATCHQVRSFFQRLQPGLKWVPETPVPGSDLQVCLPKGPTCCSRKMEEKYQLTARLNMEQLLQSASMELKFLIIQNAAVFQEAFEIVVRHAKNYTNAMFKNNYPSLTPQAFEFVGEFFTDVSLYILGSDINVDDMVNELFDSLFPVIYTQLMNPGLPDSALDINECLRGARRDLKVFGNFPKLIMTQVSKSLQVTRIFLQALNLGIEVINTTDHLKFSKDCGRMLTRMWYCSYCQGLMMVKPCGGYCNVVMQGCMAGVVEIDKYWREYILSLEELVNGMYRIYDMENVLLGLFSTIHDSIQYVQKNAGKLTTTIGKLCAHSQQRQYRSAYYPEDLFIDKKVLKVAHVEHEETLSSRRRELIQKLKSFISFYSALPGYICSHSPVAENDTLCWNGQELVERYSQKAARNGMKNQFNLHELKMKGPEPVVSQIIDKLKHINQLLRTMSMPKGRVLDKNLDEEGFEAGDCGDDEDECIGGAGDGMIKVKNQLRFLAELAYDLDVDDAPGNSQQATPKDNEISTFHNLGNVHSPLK
- Procedure details: ELISA on immobilised soluble GPC3 core protein, COS7 supernatant
Experimental readout: binding result

{"Binder": "改変抗体G34A (antibody, human IgG1, V domains shown, Humanised GC33 L chain ver.a variant; human IgG1/κ; COS7 culture supernatant) VH: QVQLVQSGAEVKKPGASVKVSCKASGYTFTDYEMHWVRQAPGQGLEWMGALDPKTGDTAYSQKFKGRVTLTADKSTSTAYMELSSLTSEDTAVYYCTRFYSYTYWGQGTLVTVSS VL: DVVMTQSPLSLPVTPGEPASISCRSSQSLVHSNANTYLHWYLQKPGQSPQLLIYKVSNRFSGVPDRFSGSGSGTDFTLKISRVEAEDVGVYYCSQNTHVPPTFGQGTKLEIK", "Experimental readout": "binding result", "Test value": "binds"}
{"Binder": "改変抗体G34K (antibody, human IgG1, V domains shown, As G34A: H chain ver.k by 'the method above'; human IgG1/κ; COS7 supernatant) VH: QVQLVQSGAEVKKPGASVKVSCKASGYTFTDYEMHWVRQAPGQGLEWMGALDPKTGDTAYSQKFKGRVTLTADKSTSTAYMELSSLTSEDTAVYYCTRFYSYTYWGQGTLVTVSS VL: DVVMTQSPLSLPVTPGEPASISCRSSQSLVHSNKNTYLHWYLQKPGQSPQLLIYKVSNRFSGVPDRFSGSGSGTDFTLKISRVEAEDVGVYYCSQNTHVPPTFGQGTKLEIK", "Experimental readout": "binding result", "Test value": "binds"}
